test system: HLA-A*24; experiment: MHC binding assay (UV-ligand exchange, β2m ELISA); parameters: species or system human
Metric: Peptide exchange (peptide exchange yield, MHC class I binding score)

22 (TQPGDWTLF; listed as Homo sapiens) [compound 22]
“++++” (>75% = ++++)
14 (SYSSCYSF; listed as Homo sapiens) [compound 14]
“+++” (>50 = +++)
76 (WYGWHFPEL; listed as Homo sapiens) [compound 76]
“+++” (>50 = +++)
81 (LYPEGLRLL; listed as Homo sapiens) [compound 81]
“++++” (>75% = ++++)
381 (TYSKKHFRI; listed as Homo sapiens) [compound 381]
“++++” (>75% = ++++)
68 (IYQQIIQTY; listed as Homo sapiens) [compound 68]
“++++” (>75% = ++++)
29 (VYPLLSRLYW; listed as Homo sapiens) [compound 29]
“++++” (>75% = ++++)
82 (RFLPSPVVI; listed as Homo sapiens) [compound 82]
“++++” (>75% = ++++)
4 (SYEKVINYL; listed as Homo sapiens) [compound 4]
“++++” (>75% = ++++)
46 (AFPVTSIFHTF; listed as Homo sapiens) [compound 46]
“++++” (>75% = ++++)

Ask | Query for HLA-A*24: what Peptide exchange (peptide exchange yield, MHC class I binding score) does the record show for 19 (ILKEDPFLF; listed as Homo sapiens) [compound 19] ?
Reply | “+” (>10% = +)

Ask | What would you report for 13 (HYTYILEVF; listed as Homo sapiens) [compound 13] ?
Reply | “++++” (>75% = ++++)

Ask | Also 74 (VYDQYFITL; listed as Homo sapiens) [compound 74] ?
Reply | “++++” (>75% = ++++)

Ask | Queued: 17 (YYADKKTFIVL; listed as Homo sapiens) [compound 17]
Reply | “+++” (>50 = +++)

Ask | Also 376 (KYVKDFHKF; listed as Homo sapiens) [compound 376] ?
Reply | “++++” (>75% = ++++)
